Tested on: barnyardgrass (Echinochloa crus-galli)
Experiment: Test B flooded paddy test
Assay type: in vivo
Conditions: Flood, 500 g ai/ha; scale 0 to 100
Answer each item with its documented Plant response rating, Barnyardgrass.
// return a plain number; no unit text

Input CCCCOC(=O)c1nc(C2CC2)nc(N)c1Cl [Compound 76] . Output Plant response rating, Barnyardgrass: 70

Input Nc1nc(C2CC2)nc(C(=O)O)c1Cl [Compound 135] . Output Plant response rating, Barnyardgrass: 80

Input COC(=O)c1nc(-c2ccc(F)cc2)nc(N)c1Br [Compound 92] . Output Plant response rating, Barnyardgrass: 0

Input CCOC(=O)c1nc(-c2ccc(C(F)(F)F)cc2)nc(N)c1Br [Compound 60] . Output Plant response rating, Barnyardgrass: 20

Input CCCOC(=O)c1nc(C2CC2)nc(N)c1Cl [Compound 75] . Output Plant response rating, Barnyardgrass: 70

Input Nc1nc(-c2ccc(Cl)cc2)nc(C(=O)[O-])c1Cl.[Na+] [Compound 117] . Output Plant response rating, Barnyardgrass: 70
